inhibition at 0.05 µM values, listed per item
Target: human ANO6 (variant 5) (Homo sapiens)
Construct: expressed in transfected cells; host or cells: Fischer rat thyroid (FRT) cells
Assay: Lact C2 assay (measuring phosphatidylserine externalization scramblase function)
Assay type: cell-based
Settings: FRT, compound 50 nM; FRT cells expressing human ANO6 (variant 5); ionomycin 10 µM; Lact-C2-GFP fluorescence; average of three tests; read-out: % Inhibition 50 nM

Some entries whose results are on file:
Compound Smiles	Value Kind	Reported
FC(F)(F)c1ccc2nc(-c3cccc(Nc4ncc(-c5ncccn5)cn4)c3)[nH]c2c1	inhibition at 0.05 µM	> 60%
Fc1cc2[nH]c(-c3cccc(Nc4ccc(-c5cccnn5)cc4)c3)nc2cc1Cl	inhibition at 0.05 µM	> 60%
Fc1ccnc(-c2ccc(Nc3cccc(-c4nc5ccc(C(F)(F)F)cc5[nH]4)c3)cc2)c1	inhibition at 0.05 µM	30 to 60%

Would you kindly look at the next entry?
Q) Return value of inhibition at 0.05 µM for input `FC(F)(F)c1cnc2nc(-c3cccc(Nc4ccc(-c5cccnn5)cc4)c3)[nH]c2c1` , no commentary.
A) 30 to 60%

---

Target: human ANO6 (variant 5) (Homo sapiens, UniProt Q4KMQ2)
Construct: expressed in transfected cells; host or cells: Fischer rat thyroid (FRT) cells
Test: Lact C2 assay (measuring phosphatidylserine externalization scramblase function)
Assay type: cell-based
Conditions: FRT, compound 1 µM; FRT cells expressing human ANO6 (variant 5); ionomycin 10 µM; Lact-C2-GFP fluorescence; average of three tests; read-out: % Inhibition 1 µM
Protocol: Ionomycin (Alomonelab, cat. # I-700), DAPI (Sigma- Aldrich, cat. # D8417), paraformaldehyde (Biosesang, cat. #P2031), Lionheart FX automated fluorescence microscope (BioTek), Gen5™ software program (BioTek), and Image J analysis software program. […] Phosphatidylserine externalization inhibitory activity (%) by the compound was calculated through the following analysis method. […]
inhibition at 1 µM values, listed per item

Q) // output inhibition at 1 µM; input `Fc1cccc(-c2cnc(Nc3cccc(-c4nc5ccccc5[nH]4)c3)nc2)n1` ; system human ANO6 (variant 5) (Homo sapiens, UniProt Q4KMQ2)
A) > 60%

Q) // output inhibition at 1 µM; input `FC(F)(F)c1ccc2nc(-c3ccnc(Nc4ncc(-c5ccccn5)cn4)c3)[nH]c2c1` ; system human ANO6 (variant 5) (Homo sapiens, UniProt Q4KMQ2)
A) 30 to 60%

Q) // output inhibition at 1 µM; input `FC(F)(F)c1cc2[nH]c(-c3cccc(Nc4ncc(-c5cccnn5)cn4)c3)nc2cn1` ; system human ANO6 (variant 5) (Homo sapiens, UniProt Q4KMQ2)
A) > 60%

Q) // output inhibition at 1 µM; input `Fc1cc2[nH]c(-c3cccc(Nc4ncc(-c5ccccn5)cn4)c3)nc2cn1` ; system human ANO6 (variant 5) (Homo sapiens, UniProt Q4KMQ2)
A) > 60%

Q) // output inhibition at 1 µM; input `Fc1cc(Br)c2[nH]c(-c3cccc(Nc4ccc(-c5ccccc5)nn4)c3)nc2c1` ; system human ANO6 (variant 5) (Homo sapiens, UniProt Q4KMQ2)
A) > 60%

Q) // output inhibition at 1 µM; input `FC(F)(F)c1ccccc1-c1ccc(Nc2cccc(-c3nc4ccccc4[nH]3)c2)cc1` ; system human ANO6 (variant 5) (Homo sapiens, UniProt Q4KMQ2)
A) > 60%

Q) // output inhibition at 1 µM; input `Clc1cc2nc(-c3cccc(Nc4ccc(-c5ccccc5)cn4)c3)[nH]c2cc1Cl` ; system human ANO6 (variant 5) (Homo sapiens, UniProt Q4KMQ2)
A) > 60%

Q) // output inhibition at 1 µM; input `COc1ccc2nc(-c3cccc(Nc4ncc(-c5cccnn5)cn4)c3)[nH]c2c1` ; system human ANO6 (variant 5) (Homo sapiens, UniProt Q4KMQ2)
A) 30 to 60%

---

inhibition at 1 µM values, listed per item
Target: human ANO6 (variant 5) (Homo sapiens)
Construct: expressed in transfected cells; host or cells: Fischer rat thyroid (FRT) cells
Sequence (Q4KMQ2 1-931 isoform Q4KMQ2-2): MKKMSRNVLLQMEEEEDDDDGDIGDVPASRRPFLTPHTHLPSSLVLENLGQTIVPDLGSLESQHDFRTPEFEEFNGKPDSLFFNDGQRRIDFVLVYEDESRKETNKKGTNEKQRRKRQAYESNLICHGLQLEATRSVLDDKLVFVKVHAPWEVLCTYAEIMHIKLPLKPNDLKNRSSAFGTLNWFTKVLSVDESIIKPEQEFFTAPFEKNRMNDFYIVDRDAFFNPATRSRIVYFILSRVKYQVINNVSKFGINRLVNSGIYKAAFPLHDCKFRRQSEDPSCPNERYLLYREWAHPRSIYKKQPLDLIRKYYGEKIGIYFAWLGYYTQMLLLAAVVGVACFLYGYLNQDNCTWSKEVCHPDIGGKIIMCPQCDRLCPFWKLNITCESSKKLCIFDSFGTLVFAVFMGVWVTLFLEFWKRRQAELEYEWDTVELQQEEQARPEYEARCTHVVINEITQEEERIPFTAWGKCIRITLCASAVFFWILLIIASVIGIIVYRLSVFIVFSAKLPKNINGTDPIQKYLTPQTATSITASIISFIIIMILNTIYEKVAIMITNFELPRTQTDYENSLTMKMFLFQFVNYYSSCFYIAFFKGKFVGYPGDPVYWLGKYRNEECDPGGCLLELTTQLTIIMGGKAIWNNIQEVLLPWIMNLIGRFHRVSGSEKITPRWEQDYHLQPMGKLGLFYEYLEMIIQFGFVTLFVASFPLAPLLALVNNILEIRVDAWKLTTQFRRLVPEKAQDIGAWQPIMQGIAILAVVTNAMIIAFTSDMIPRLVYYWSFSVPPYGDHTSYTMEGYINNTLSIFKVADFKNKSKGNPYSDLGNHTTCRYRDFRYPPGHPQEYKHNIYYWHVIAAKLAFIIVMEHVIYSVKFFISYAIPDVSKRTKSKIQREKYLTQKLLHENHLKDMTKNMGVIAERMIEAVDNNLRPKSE
Assay: Lact C2 assay (measuring phosphatidylserine externalization scramblase function)
Format: cell-based
Conditions: FRT, compound 1 µM; FRT cells expressing human ANO6 (variant 5); ionomycin 10 µM; Lact-C2-GFP fluorescence; average of three tests; read-out: % Inhibition 1 µM

Compound Smiles	inhibition at 1 µM
FC(F)(F)c1ccc2nc(-c3cc(Nc4ccc(-c5cccnn5)cc4)ccn3)[nH]c2c1	30 to 60%
c1ccc(CNc2ccc3nc(-c4cccc(Nc5ccc(-c6cccnn6)cc5)c4)[nH]c3c2)cc1	> 60%
FC(F)(F)c1ccc2nc(-c3cccc(Nc4ccc(-c5ncccn5)cc4)c3)[nH]c2c1	> 60%
c1cc(Nc2ccc(-c3ccnnc3)cc2)cc(-c2nc3ccccc3[nH]2)c1	> 60%

Q) // output inhibition at 1 µM; input `FC(F)(F)c1ccc2nc(-c3cccc(Nc4ccc(-c5ncccn5)cn4)c3)[nH]c2c1` ; system human ANO6 (variant 5) (Homo sapiens)
A) > 60%

Q) // output inhibition at 1 µM; input `Cc1noc(-c2ccc3nc(-c4cccc(Nc5ccc(-c6cccnn6)cc5)c4)[nH]c3c2)n1` ; system human ANO6 (variant 5) (Homo sapiens)
A) > 60%

Q) // output inhibition at 1 µM; input `COc1cc(-c2cccnn2)ccc1Nc1cccc(-c2nc3ccccc3[nH]2)c1` ; system human ANO6 (variant 5) (Homo sapiens)
A) 30 to 60%

Q) // output inhibition at 1 µM; input `Fc1cc(F)c2[nH]c(-c3cccc(Nc4ncc(-c5cccnn5)cn4)c3)nc2c1` ; system human ANO6 (variant 5) (Homo sapiens)
A) 30 to 60%

---

Biological target: human ANO6 (variant 5) (Homo sapiens, UniProt Q4KMQ2)
Construct: expressed in transfected cells; host or cells: Fischer rat thyroid (FRT) cells
Test: Lact C2 assay (measuring phosphatidylserine externalization scramblase function)
Type: cell-based
Conditions: FRT, compound 1 µM; FRT cells expressing human ANO6 (variant 5); ionomycin 10 µM; Lact-C2-GFP fluorescence; average of three tests; read-out: % Inhibition 1 µM
Value Kind: inhibition at 1 µM

Some entries whose results are on file:
Compound Smiles	inhibition at 1 µM
FC(F)(F)c1ccc2nc(-c3cccc(Nc4ncc(-c5ccccc5)cn4)c3)[nH]c2c1	> 60%
FC(F)(F)c1ccc2nc(-c3cncc(Nc4ncc(-c5ccccn5)cn4)c3)[nH]c2c1	30 to 60%
Fc1ccc(-c2cnc(Nc3cccc(-c4nc5ccc(C(F)(F)F)cc5[nH]4)c3)nc2)nc1	> 60%
Fc1ccc2nc(-c3cccc(Nc4ccc(-c5cccnn5)cc4)c3)[nH]c2c1	> 60%
c1cc(Nc2ncc(-c3ncco3)cn2)cc(-c2nc3ccccc3[nH]2)c1	30 to 60%
Clc1cc2nc(-c3cccc(Nc4ccc(-c5ccccc5)nn4)c3)[nH]c2cc1Cl	> 60%
Fc1cc2nc(-c3cccc(Nc4ncc(-c5cccnn5)cn4)c3)[nH]c2cc1F	> 60%

Would you kindly look at the next entry?
Q) Return value of inhibition at 1 µM for input `CN(C)c1ccc2nc(-c3cccc(Nc4ccc(-c5cccnn5)cc4)c3)[nH]c2c1` , no commentary.
A) > 60%
